Consider the following sequences and their measured log2 fold change of degron read counts readings.
# TARGET_ENTITY: T1, CRBN, Q96SW2;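 also: pooled lentiviral library of zinc finger degron-EGFP fusions in mCherry-positive Jurkat cells, FACS-sorted after compound exposure, with degron abundance counted by next-generation sequencing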
# T1 chain: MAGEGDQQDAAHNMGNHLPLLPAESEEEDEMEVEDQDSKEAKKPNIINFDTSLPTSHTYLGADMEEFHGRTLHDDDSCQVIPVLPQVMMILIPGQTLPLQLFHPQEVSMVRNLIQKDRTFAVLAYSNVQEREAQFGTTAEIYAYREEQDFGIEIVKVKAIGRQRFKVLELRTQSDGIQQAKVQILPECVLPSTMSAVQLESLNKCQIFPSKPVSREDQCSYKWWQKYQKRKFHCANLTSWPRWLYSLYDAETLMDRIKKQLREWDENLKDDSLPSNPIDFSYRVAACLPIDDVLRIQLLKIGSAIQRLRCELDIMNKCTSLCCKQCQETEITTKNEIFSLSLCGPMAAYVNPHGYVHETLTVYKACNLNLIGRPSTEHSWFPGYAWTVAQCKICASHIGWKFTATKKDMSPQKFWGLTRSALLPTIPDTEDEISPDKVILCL
# MEASUREMENT_DESCRIPTION: log2 fold change of degron read counts, EGFP-low vs EGFP+ sorted cells (limma voom), compound-induced degradation; higher = more compound-induced degradation of the degron-EGFP fusion; degrons are variants of IKZF1/3 zinc finger 2; compound dose not given here
# DETAILS: Jurkat; 18 h; compound: compound 19 (5-tert-butyl-thalidomide)
Over roughly 8,300 sequences, “log2 fold change of degron read counts, EGFP-low vs EGFP+ sorted cells (limma voom), compound-induced degradation” has its median near -1.1; the highest 2% begin near 3.2. The sample holds the highest values, similar sequences and a random draw of the others, so the mix is not that of the screen.
Please state the value as a number alone, without comment.

Consider the reported log2 fold change of degron read counts for these sequences:
Entry FTCPVCGAQFTQKGNLLRHIKL [46F_47T_49P_50V_52G_53A_54Q_55F_67L_, Q9UKT9] has what log2 fold change of degron read counts?
0.0342

Entry LVCPICGFTCTQKGNLLRHIKL [46L_47V_49P_50I_52G_53F_54T_55C_67L_, Q9UKT9] has what log2 fold change of degron read counts?
1.27

Entry LMCPICGFTCTQKGNLLRHIKL [46L_47M_49P_50I_52G_53F_54T_55C_67L_, Q9UKT9] has what log2 fold change of degron read counts?
-0.0285

Entry FDCPICGRRFTQKGNLLRHIKL [46F_47D_49P_50I_52G_53R_54R_55F_67L_, Q9UKT9] has what log2 fold change of degron read counts?
2.15

Entry FRCPICGHQFTQKGNLLRHIKL [46F_47R_49P_50I_52G_53H_54Q_55F_67L_, Q9UKT9] has what log2 fold change of degron read counts?
-2.97

Okay, now this sequence:
Entry FICDICGAKFTQKGNLLRHIKL [46F_47I_49D_50I_52G_53A_54K_55F_67L_, Q9UKT9] has what log2 fold change of degron read counts?
-1.2
